experiment: Apparent permeability across apical to basal side in human Caco-2 cells at 1 uM incubated for 120 mins followed by ACN addition by LC-MS/MS analysis
Format: ADME, cell-based
endpoint.name: Papp A→B at 2 h, 1 µM (×10⁻⁶ cm/s)
Give just the numeric value; ×10⁻⁶ cm/s need not be written.

Reference set (2 entries):
Cn1c(=O)n([C@H]2CCC(=O)NC2=O)c2cccc(C#CCOC3CCN(C[C@H]4CC[C@H](n5cc(NC(=O)c6cnn7ccc(N8C[C@H]9C[C@@H]8CO9)nc67)c(C(F)F)n5)CC4)CC3)c21: 5.3
COc1cc(-c2cn(C)c(=O)c3cnc(N4CCC4)cc23)cc(OC)c1CN1CCC(CN2CCC3(CC2)CN(c2ccc4c(c2)C(=O)N([C@H]2CCC(=O)NC2=O)C4)C3)CC1: 0.1

Moving on to the next compound.
# Papp A→B at 2 h, 1 µM (compound: CCc1cc(N2C(=S)N(c3ccc(C#N)c(C(F)(F)F)c3)C(=O)C2(C)C)ccc1OCCN1CCN(CC(=O)Nc2cccc(NC3CCC(=O)NC3=O)c2)[C@H](C)C1 (some centres undefined) ) is 1.2

###

experiment: Protein binding in mouse plasma assessed as free fraction at 5 uM incubated for 18 hrs by LC-MS/MS analysis
Format: ADME, cell-free
The following molecules are shown together with reported fraction unbound at 18 h, 5 µM values.
Please reply with the value in numeric form only.

Reference set (3 entries):
CNC(=O)COc1cc2cc(Nc3nc(N4CCC(O[C@H]5C[C@H](N6CCC(c7ccc8c(c7F)CN(C7CCC(=O)NC7=O)C8=O)CC6)C5)CC4)ncc3Cl)ccc2n(C(C)C)c1=O (stereo not given in full): 0.005
COc1cc(O[C@H]2C(C)(C)[C@H](NC(=O)c3ccc(N4CCC(CN5CCN(c6ccc(C(=O)N[C@H]7CCC(=O)NC7=O)c(F)c6)CC5)CC4)cc3)C2(C)C)ccc1C#N [LUXDEGALUTAMIDE]: 0.002
CN1CCN([C@@H]2CCCN(c3cnc(C(N)=O)c(Nc4ccc(C5CCN(CC6CCN(c7ccc(C(=O)N[C@H]8CCC(=O)NC8=O)nc7)CC6)CC5)cc4)n3)C2)C1=O [NX-5948]: 0.024

Moving on to the next molecule.
# fraction unbound at 18 h, 5 µM (molecule: Cn1c(=O)n([C@H]2CCC(=O)NC2=O)c2cccc(C#CCOC3CCN(C[C@H]4CC[C@H](n5cc(NC(=O)c6cnn7ccc(N8C[C@H]9C[C@@H]8CO9)nc67)c(C(F)F)n5)CC4)CC3)c21 ) is 0.008

###

experiment: Protein binding in monkey plasma assessed as free fraction at 5 uM incubated for 18 hrs by LC-MS/MS analysis
Assay type: ADME, cell-free, Macaca mulatta
experimental.conditions: rhesus monkey
The following compounds are shown together with reported fraction unbound at 18 h, 5 µM values.
Please reply with the value in numeric form only.

CCc1cc(N2C(=S)N(c3ccc(C#N)c(C(F)(F)F)c3)C(=O)C2(C)C)ccc1OCCN1CCN(CC(=O)Nc2cccc(NC3CCC(=O)NC3=O)c2)[C@H](C)C1 (some centres not stated): 0.003
Cn1c(=O)n([C@H]2CCC(=O)NC2=O)c2cccc(C#CCOC3CCN(C[C@H]4CC[C@H](n5cc(NC(=O)c6cnn7ccc(N8C[C@H]9C[C@@H]8CO9)nc67)c(C(F)F)n5)CC4)CC3)c21: 0.035
CN1CCN([C@@H]2CCCN(c3cnc(C(N)=O)c(Nc4ccc(C5CCN(CC6CCN(c7ccc(C(=O)N[C@H]8CCC(=O)NC8=O)nc7)CC6)CC5)cc4)n3)C2)C1=O: 0.094
CNC(=O)COc1cc2cc(Nc3nc(N4CCC(O[C@H]5C[C@H](N6CCC(c7ccc8c(c7F)CN(C7CCC(=O)NC7=O)C8=O)CC6)C5)CC4)ncc3Cl)ccc2n(C(C)C)c1=O (some centres not stated): 0.007

Moving on to the next compound.
# fraction unbound at 18 h, 5 µM (compound: COc1cc(-c2cn(C)c(=O)c3cnc(N4CCC4)cc23)cc(OC)c1CN1CCC(CN2CCC3(CC2)CN(c2ccc4c(c2)C(=O)N([C@H]2CCC(=O)NC2=O)C4)C3)CC1 ) is 0.427
